{"Compound": "COC(=O)c1ccc(Oc2cc3c(cc2Br)C(C)(C)CCC3(C)C)cc1", "melting point": "135 to 136 °C"}
{"Compound": "CCCCCC(=O)OCc1nccc(Oc2ccc3c(C(=O)OCC)csc3c2)n1", "melting point": "51 °C"}
{"Compound": "CC(C)(C)c1cc(C(C(=O)O)c2cc(C(C)(C)C)c(O)c(C(C)(C)C)c2)cc(C(C)(C)C)c1O", "melting point": "211 °C"}
{"Compound": "CC(C)n1nc(-c2c(NC(=N)N)nc(N)nc2-c2ccccc2)ccc1=O", "melting point": "272 to 274 °C"}
{"Compound": "CC(=O)N=c1[nH]c2ccccc2n1CCCN1CCN(C(c2ccccc2)c2ccccc2)CC1", "melting point": "143 °C"}
{"Compound": "Cc1cc(C(C)(C)C)c(O[Si](C)(C)Cl)c(C(C)(C)C)c1", "melting point": "119 to 121 °C"}
{"Compound": "CCC(C)(CC)c1ccc(=O)[nH]n1", "melting point": "97 to 99 °C"}
{"Compound": "COC(=O)C(=Cc1c[nH]c2cc(C)ccc12)NC(C)=O", "melting point": "182 to 183 °C"}
{"Compound": "CCCCCc1ccc(-c2ccc(C3CC(CCCCC)C(=O)O3)cc2)cc1 (stereo not given)", "melting point": "86.2 to 88.4 °C"}
{"Compound": "Cc1ncn(Nc2ccccc2)c1-c1ccccc1", "melting point": "165 to 167 °C"}
{"Compound": "Cn1c(C(F)(F)F)cc(=O)n(-c2cc(Oc3ccccc3OCc3ccccc3)c(Cl)cc2F)c1=O", "melting point": "50.8 °C"}
{"Compound": "O=C(Nc1ccc(C(=O)N2C[C@H]3C[C@H](F)CN3c3ccccc32)cc1)c1ccccc1-c1ccccc1", "melting point": "136 to 145 °C"}
{"Compound": "CC(Cn1ccnc1)OCC(O)(P(=O)(O)O)P(=O)(O)O (stereo not given)", "melting point": "135 to 140 °C"}
{"Compound": "CC12CCC(C1)C1(C)Oc3ccc(C(O)c4ccc5cc(C(=O)O)ccc5c4)cc3C21C (stereo not given)", "melting point": "146 to 148 °C"}
{"Compound": "CCOc1ccccc1-c1cc(NC(=O)C2CCN(C(C)C)CC2)ncn1", "melting point": "173 to 175 °C"}
{"Compound": "C[C@H](NC(=O)COCCN1C(=O)c2ccccc2C1=O)C(=O)N[C@H](CCC(=O)OCc1ccccc1)C(N)=O", "melting point": "205 to 206 °C"}
{"Compound": "COc1ccc2c(Nc3ccc(Cl)cc3F)c(C#N)cnc2c1", "melting point": "208 to 210 °C"}
{"Compound": "COc1ccc(CSc2nc3cnccc3[nH]2)cc1C", "melting point": "158 to 159 °C"}
{"Compound": "CN1C(=O)C(CCCN2CCN(c3ccc(F)cc3)CC2)Sc2ccccc21 (stereo not given)", "melting point": "103 to 104 °C"}
{"Compound": "CN(C)C=C(C#N)C(=O)c1cc(F)c(Cl)cc1Cl", "melting point": "138 to 139 °C"}

###

{"Compound": "COC1(OC)C(=O)NC(Nc2ncnc3c2ncn3C2OC(CO)C(O)C2O)C1Cl (stereo unspecified)", "melting point": "110 to 120 °C"}
{"Compound": "COC(=O)c1ccc(-c2nnc(-c3ccc(C(F)(F)F)cc3)s2)cc1", "melting point": "218 to 219 °C"}
{"Compound": "CCS(=O)(=O)c1ccc(Oc2ccc(Cl)c(Cl)c2)nc1C#N", "melting point": "150 to 151 °C"}
{"Compound": "CCc1cn(C2CC(O)C(CNCc3ccccc3Br)O2)c(=O)[nH]c1=O (stereo unspecified)", "melting point": "144 to 146 °C"}
{"Compound": "CCCCCCc1ncc(/C=C(\\Cc2cccs2)C(=O)O)n1Cc1ccc(C(=O)O)cc1", "melting point": "210 to 212 °C"}
{"Compound": "Cc1nccn1Cc1ccc(COc2cccc3c2CN(C2CCC(=O)NC2=O)C3=O)cc1 (stereo unspecified)", "melting point": "275 to 277 °C"}
{"Compound": "CC1CC(=O)c2c(C(=O)Nc3ccc(F)cc3)c[nH]c2C1 (stereo unspecified)", "melting point": "262 to 264 °C"}
{"Compound": "Cc1[nH]c(/C=C2\\C(=O)Nc3cc(NC(=O)NC(=O)c4ccccc4)ccc32)c(C)c1C(=O)O", "melting point": "270 to 275 °C"}
{"Compound": "O=c1c2c(N3CCNCC3)cc(Cl)cc2n(Cc2ccccc2)c(=O)n1Cc1ccccc1F", "melting point": "98 to 109 °C"}
{"Compound": "CC(=O)N(C)c1c(C(=O)c2ccccc2)[nH]c2cc(Cl)ccc12", "melting point": "232 to 235 °C"}
{"Compound": "COC(C#N)Cc1ccc2oc(Cc3nc(-c4ccccc4)oc3C)cc2c1 (stereo unspecified)", "melting point": "107 to 109 °C"}
{"Compound": "CCNC(=O)C1CCN(c2cc(-c3ccc(Cl)cc3)nc3ccccc23)CC1", "melting point": "231 to 233 °C"}
{"Compound": "O=C(CCl)Cc1ccc(Cl)cc1", "melting point": "40.5 to 45.5 °C"}
{"Compound": "CC(C)c1ccc(Cc2c(N)nc(SCCN3CCNCC3)nc2N)cc1", "melting point": "63 to 64 °C"}
{"Compound": "COC(=O)c1c(S(C)(=O)=O)ccc(C(=O)O)c1Cl", "melting point": "160 to 162 °C"}
{"Compound": "CSc1nc(C)c(Cl)c(Cl)n1", "melting point": "49 to 50 °C"}
{"Compound": "Cc1ccc(C(=O)O)c(F)c1C1=NC(C)(C(C)C)C(=O)N1 (stereo unspecified)", "melting point": "164 to 170 °C"}
{"Compound": "CCOc1nn(-c2ccc(C(F)(F)F)cn2)cc1CCCOc1cc(CC(=O)O)n(C)n1", "melting point": "151 to 152 °C"}
{"Compound": "CN(C(=O)Nc1cccnc1)c1ccc2c(ccn2C)c1", "melting point": "168 to 170 °C"}
{"Compound": "N#CC1CN1C(=O)c1ccc2c(c1)OCO2 (stereo unspecified)", "melting point": "95 to 97 °C"}
{"Compound": "NS(=O)(=O)C1=CC2=C(OCCO)CCS(=O)(=O)C2S1 (stereo unspecified)", "melting point": "159 to 164 °C"}

###

Measured property: melting point

{"Smiles structure": "CCOC(=O)c1conc1-c1ccc(Cl)c(F)c1", "Measured property": "melting point", "Result": "77 to 78 °C"}
{"Smiles structure": "CCOC(=O)c1cc2c(C)c(-c3cccc(Cl)c3)c(=O)oc2nc1C(=O)OCC", "Measured property": "melting point", "Result": "170 to 172 °C"}
{"Smiles structure": "N#Cc1cc(F)ccc1O", "Measured property": "melting point", "Result": "121 to 122 °C"}

###

{"Molecule": "Cc1nc2c(cc1C(=O)NC(=N)N)CCCCC2COS(=O)(=O)O (stereo unspecified)", "melting point": "231 to 233 °C"}
{"Molecule": "O=C(Nc1ccc([N+](=O)[O-])cc1)N1CC=CCC1", "melting point": "169 to 170 °C"}
{"Molecule": "CCOC(=O)c1c(O)c2cc(F)ccc2c(=O)n1CC(C)(C)C", "melting point": "115 to 116 °C"}
{"Molecule": "Oc1cc(-c2ncnc(C(F)F)c2Cl)c(F)cc1Cl", "melting point": "141 to 143 °C"}
{"Molecule": "Cc1c(C(=O)OCc2ccccc2)[nH]c2cc3c(sc4ccccc43)c(C)c12", "melting point": "203 to 204 °C"}
{"Molecule": "CCOC(=O)c1c2ccc(CC(=O)NOCC(N)=O)ccc-2c(C(=O)OCC)c1N", "melting point": "208 to 210 °C"}
{"Molecule": "CCOC(CSc1ccc2c(c1)CCN2C(C)=O)OCC", "melting point": "< 52 °C"}
{"Molecule": "COc1ccc2[nH]c(C(=O)c3ccccc3)c(NC(C)=O)c2c1", "melting point": "258 to 260 °C"}
{"Molecule": "O=C(O)C1=Cc2cc(Cl)cc(C#Cc3ccc(Cl)cc3)c2OC1C(F)(F)F (stereo unspecified)", "melting point": "210 to 211 °C"}
{"Molecule": "CNC(=O)CN1CCc2ccc(Nc3ncc(Cl)c(Nc4ccc(N5CCOCC5)cc4OC)n3)cc2CC1", "melting point": "169 to 176 °C"}
{"Molecule": "O=C(NCCO)c1cc(Cl)c(O)c(Cl)c1", "melting point": "174 to 178 °C"}

###

Overview of recorded melting point for various compounds

{"Compound": "COc1cc(C(=O)c2c[nH]c(-c3ccc(C)cc3)n2)cc(OC)c1OC", "melting point": "201 to 203 °C"}
{"Compound": "Clc1ccc2c(c1)c(-c1ccccc1)nc1nccn12", "melting point": "270 to 272 °C"}
{"Compound": "COc1cccc2c1CCCC2N (stereo unspecified)", "melting point": "22 to 25 °C"}
{"Compound": "CNC(=S)NCCCCc1nc[nH]c1Br", "melting point": "153 to 155 °C"}
{"Compound": "Nc1scc2c(C(=O)O)nn(-c3ccc(Br)cc3)c(=O)c12", "melting point": "> 300 °C"}
{"Compound": "CCCCN(CCCC)c1ccc(C=CC2=C(C#N)C(=C(C#N)C#N)OC2(C)C)c(O[Si](c2ccccc2)(c2ccccc2)C(C)(C)C)c1", "melting point": "220 to 221 °C"}
{"Compound": "N#Cc1cccc(Oc2ccc(CBr)cc2)c1C#N", "melting point": "130 to 132 °C"}
{"Compound": "CCC(=O)Nc1c(Cl)cnn1-c1ccc(Cl)c(Cl)c1Cl", "melting point": "122 °C"}
{"Compound": "O=C1c2ccccc2C(=O)N1Cc1ccncc1", "melting point": "164 to 165 °C"}
{"Compound": "CCCc1c(OCCCCCCc2cc(C)c(O)c(O)c2C)ccc(C(=O)OCC)c1O", "melting point": "61 to 64 °C"}
{"Compound": "CCCCC1(c2ccc(-c3ccccc3)cc2)CC(O)=C(SCCc2ccccc2)C(=O)O1 (stereo unspecified)", "melting point": "100 to 104 °C"}
{"Compound": "CN1C=CCC(C(=O)NCCc2c[nH]c3ccccc23)=C1", "melting point": "40 to 70 °C"}
{"Compound": "COc1ccccc1-n1c(=O)[nH]c2c(C(N)=O)nc(-c3ccncc3)nc21", "melting point": "318 to 320 °C"}
{"Compound": "O=C(NC1N=C(c2ccccc2)c2ccccc2NC1=O)c1cccc2ccccc12 (racemic)", "melting point": "162 to 167 °C"}
{"Compound": "CCOc1ccc(C2=NN(CCCCBr)C(=O)[C@H]3CC=CC[C@@H]23)cc1OCC (relative stereo)", "melting point": "73 to 75 °C"}
{"Compound": "CCCCS(=O)(=O)Nc1ccc(Oc2ccc3cccnc3c2)cc1", "melting point": "168 °C"}
